- experimental system: UniProt:P23977
- Sequence (P23977 whole entry): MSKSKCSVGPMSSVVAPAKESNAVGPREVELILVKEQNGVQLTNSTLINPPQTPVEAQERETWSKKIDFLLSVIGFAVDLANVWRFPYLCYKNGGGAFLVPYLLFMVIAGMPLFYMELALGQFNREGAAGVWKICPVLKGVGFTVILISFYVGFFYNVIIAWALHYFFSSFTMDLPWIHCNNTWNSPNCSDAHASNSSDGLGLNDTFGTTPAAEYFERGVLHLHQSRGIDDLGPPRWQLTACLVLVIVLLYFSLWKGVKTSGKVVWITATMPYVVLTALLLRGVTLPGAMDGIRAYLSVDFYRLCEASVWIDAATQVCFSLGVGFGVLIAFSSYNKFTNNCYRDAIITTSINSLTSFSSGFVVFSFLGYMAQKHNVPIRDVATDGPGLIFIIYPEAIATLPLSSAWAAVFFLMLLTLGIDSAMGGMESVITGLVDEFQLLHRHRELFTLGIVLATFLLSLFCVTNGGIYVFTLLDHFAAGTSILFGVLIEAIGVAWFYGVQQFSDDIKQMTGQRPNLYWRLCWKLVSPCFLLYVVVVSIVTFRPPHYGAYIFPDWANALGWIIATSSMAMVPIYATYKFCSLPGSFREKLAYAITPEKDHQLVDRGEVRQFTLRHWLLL
Where a name gives a salt, the structure may show the parent alone.
measurement type: pKi
Give bare numbers, as −log10 of the molar value.

Q. Looking for the measured pKi of CN(C)CCCN1c2ccccc2CCc2ccc(Cl)cc21 [CLOMIPRAMINE HYDROCHLORIDE] , can you help?
A. 5.91

* * *

Would you mind telling me the reported Ki of each entry?
- experimental system: Alpha-1A adrenergic receptor (Homo sapiens, UniProt P35348)
- Sequence (P35348 whole entry): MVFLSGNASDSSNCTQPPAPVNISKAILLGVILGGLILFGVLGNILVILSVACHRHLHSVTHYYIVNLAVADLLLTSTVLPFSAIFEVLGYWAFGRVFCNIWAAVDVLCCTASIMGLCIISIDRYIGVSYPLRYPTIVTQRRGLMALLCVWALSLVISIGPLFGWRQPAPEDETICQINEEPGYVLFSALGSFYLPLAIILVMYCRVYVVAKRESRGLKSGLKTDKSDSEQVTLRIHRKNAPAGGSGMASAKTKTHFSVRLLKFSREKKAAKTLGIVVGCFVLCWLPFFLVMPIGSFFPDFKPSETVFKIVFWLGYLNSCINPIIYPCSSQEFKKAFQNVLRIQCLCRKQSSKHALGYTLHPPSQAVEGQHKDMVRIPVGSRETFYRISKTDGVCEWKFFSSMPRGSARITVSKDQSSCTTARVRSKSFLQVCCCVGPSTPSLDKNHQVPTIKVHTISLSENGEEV
Structures can show the parent of a compound that is named as a salt.

Study these solved cases before continuing.
COc1ccc(C(CN(C)C)C2(O)CCCCC2)cc1 (stereo not drawn) : > 10 µM
CN(C)CCCN1c2ccccc2CCc2ccc(Cl)cc21 [CLOMIPRAMINE HYDROCHLORIDE] : 0.0032 µM

Q. Looking for the measured Ki of COc1ccc2c(c1)C(CN(C)C)(C1(O)CCCCC1)C2 (stereo not drawn) , can you help?
A. > 10 µM

* * *

- experimental system: Sodium-dependent dopamine transporter (Homo sapiens, UniProt Q01959)
- Sequence (Q01959 whole entry): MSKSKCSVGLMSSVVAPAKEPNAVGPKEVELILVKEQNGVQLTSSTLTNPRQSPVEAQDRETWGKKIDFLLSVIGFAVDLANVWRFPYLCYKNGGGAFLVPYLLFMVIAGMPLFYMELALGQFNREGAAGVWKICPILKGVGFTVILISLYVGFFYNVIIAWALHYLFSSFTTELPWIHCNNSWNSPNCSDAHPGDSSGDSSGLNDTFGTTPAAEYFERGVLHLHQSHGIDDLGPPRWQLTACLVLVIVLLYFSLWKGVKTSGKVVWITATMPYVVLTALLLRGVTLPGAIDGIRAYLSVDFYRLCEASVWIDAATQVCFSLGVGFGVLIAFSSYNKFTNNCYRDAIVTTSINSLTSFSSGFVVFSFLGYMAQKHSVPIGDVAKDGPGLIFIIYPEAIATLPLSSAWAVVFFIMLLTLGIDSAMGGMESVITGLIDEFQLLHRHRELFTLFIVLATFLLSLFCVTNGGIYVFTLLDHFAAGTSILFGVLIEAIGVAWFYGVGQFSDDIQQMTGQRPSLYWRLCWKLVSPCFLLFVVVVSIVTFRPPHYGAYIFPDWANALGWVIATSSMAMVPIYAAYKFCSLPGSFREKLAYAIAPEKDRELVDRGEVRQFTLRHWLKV
Where a name gives a salt, the structure may show the parent alone.
measurement type: Ki (µM)
Give bare numbers, in µM.

Q. Looking for the measured Ki of CN(C)CCCN1c2ccccc2CCc2ccc(Cl)cc21 [CLOMIPRAMINE HYDROCHLORIDE] , can you help?
A. 3.02
